Parameter: ELISA A450. Scope: all listed entries.
Target: T1, Orencia
T1 sequence (chain, INN chains, looked up, looked up): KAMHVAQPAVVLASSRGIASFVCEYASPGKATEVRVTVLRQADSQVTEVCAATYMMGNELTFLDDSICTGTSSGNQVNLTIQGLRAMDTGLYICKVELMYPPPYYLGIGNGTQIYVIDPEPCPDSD
Test: ELISA, MBP fusion in E. coli lysate on Orencia

BINDER	ELISA A450
GGCMHPYLPVISHHFCGG (peptide, not shown: large carriers; small tags and cut ends, MBP fusion; also called #15) [C4-302mat-2-1-27]	0.785
GGCMHPYLLVASHHFCER (peptide, not shown: large carriers; small tags and cut ends, MBP fusion; also called #39) [C4-302mat-3-1-9]	0.574
GGCMHPFLPVVSHHFCGR (peptide, not shown: large carriers; small tags and cut ends, MBP fusion) [C4-302mat-3-100-37]	1.17
GGCIHPFLQVVSHHFCGG (peptide, not shown: large carriers; small tags and cut ends, MBP fusion; also called #28) [C4-302mat-1-1-21]	0.155
GGCKHPFLRVVSHHFCRR (peptide, not shown: large carriers; small tags and cut ends, MBP fusion; also called #34) [C4-302mat-2-1-12]	0.51
GGCKHPFLPVVSHHFCGG (peptide, not shown: large carriers; small tags and cut ends, MBP fusion; also called #13) [C4-302mat-3-100-9]	0.779
GGCMHPFLPVVSHHFCRG (peptide, not shown: large carriers; small tags and cut ends, MBP fusion) [C4-302mat-2-100-18]	0.857

Every entry's value here was drawn from patent US20240092836A1.
